Target: Luciferin 4-monooxygenase (Photinus pyralis) (UniProt P08659)
Sequence (P08659 whole entry, looked up): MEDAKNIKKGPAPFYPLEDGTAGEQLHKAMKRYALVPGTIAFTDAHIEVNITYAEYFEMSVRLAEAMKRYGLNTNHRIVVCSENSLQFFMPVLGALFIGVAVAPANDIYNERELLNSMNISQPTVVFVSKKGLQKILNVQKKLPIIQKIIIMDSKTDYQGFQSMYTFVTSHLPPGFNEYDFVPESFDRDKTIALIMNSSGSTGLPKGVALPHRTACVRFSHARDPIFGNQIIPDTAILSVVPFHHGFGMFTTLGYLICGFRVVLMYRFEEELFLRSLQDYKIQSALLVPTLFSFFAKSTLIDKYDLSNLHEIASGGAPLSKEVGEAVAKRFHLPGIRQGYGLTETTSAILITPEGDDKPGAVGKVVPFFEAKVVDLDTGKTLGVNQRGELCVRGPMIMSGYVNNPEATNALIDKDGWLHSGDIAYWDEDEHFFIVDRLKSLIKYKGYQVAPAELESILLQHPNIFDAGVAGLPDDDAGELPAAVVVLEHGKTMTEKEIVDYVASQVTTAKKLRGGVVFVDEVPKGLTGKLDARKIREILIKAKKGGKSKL
Assay: firefly luciferase enzyme inhibitors, primary screen, biochemical, luminescence, purified enzyme, 2006 set (AID 1141);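 further: cell-free assay with purified firefly luciferase at 100 ng per well in PBS; test concentration not given here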
Conditions: SteadyGlo luminescence, 30 min, higher = more signal, called active from +8 up or from −8 down
Reported z-score values are given for each entry in this list.
Reply with just the number.

| compound | measurement.kind | assay.result |
| --- | --- | --- |
| O=C1CCCC=C1C(O)CCOCc1ccccc1 (stereo not given) | z-score | -0.0361 |
| O=C1O[C@@H](c2ccccc2)[C@@H](c2ccccc2)N2[C@@H](c3ccc(O)cc3)[C@]3(C(=O)Nc4ccccc43)[C@@H](C(=O)O)[C@H]12 | z-score | -0.0041 |
| COC(=O)[C@@]1(Cc2ccc(F)cc2)[C@@H]2C(=CC(=O)[C@H]2CC(=O)C(=O)N(C)C)CN1C(=O)c1ccccc1 | z-score | 1.24 |
| CC(C)[C@H](NC(=O)OC(C)(C)C)[C@@H](O)CC(=O)OC(C)(C)C | z-score | -0.0331 |
| O=C(CS)NCCCCCNC(=O)[C@H]1C[C@H]2C(=O)N3CCC[C@H]3C(=O)N2[C@H]1c1cccc(OCCO)c1 | z-score | -1.22 |
| COC(=O)C1(C)C=C2C(=C(c3ccccc3)C(=O)C2C)CN1 (stereo not given) | z-score | 1.89 |
| CO[C@H]1O[C@H](CO)[C@@H](OC(=O)Nc2ccc(C#N)cc2)[C@H](OC(=O)c2cc3ccccc3[nH]2)[C@H]1OC(=O)c1cc2ccccc2[nH]1 | z-score | -2.01 |
| COc1ccc(OC[C@H]2Cc3c(-c4ccccc4)nc4c(c3CO2)CN(CCOc2ccccc2)CC4)cc1 | z-score | -0.356 |

Look up and report measured z-score for this entry: "O=C1[C@H]2[C@H]3[C@H](O)[C@H](O)CC(=NOCc4ccccc4)[C@H]3CC[C@H]2C(=O)N1c1cccc(Oc2ccccc2)c1"
0.549

Look up and report measured z-score for this entry: "CC(C)CON=C1C[C@@H](O)[C@@H](O)[C@@H]2[C@@H]3C(=O)N(C[C@@H]4CCCO4)C(=O)[C@@H]3CC[C@H]12"
1.01

Look up and report measured z-score for this entry: CCOC(=O)[C@H](Cc1ccccc1)NC(=O)CCC1CC(OC(=O)NCc2ccc3c(c2)OCO3)CC2(CCCC(COC(=O)NCC(c3ccccc3)c3ccccc3)O2)O1 (stereo not given in full)
0.635

Look up and report measured z-score for this entry: "O=C1[C@H]2[C@H]3[C@H](O)[C@H](O)CC(=NO[C@@H]4O[C@H](CO)[C@@H](O)[C@H](O)[C@H]4O)[C@H]3CC[C@H]2C(=O)N1Cc1ccc2c(c1)OCO2"
0.654

Look up and report measured z-score for this entry: "CCc1cc2c(nc1CC)CCN(CCC(C)=NO[C@@H](C)c1cc(-c3c(C)cc(C)cc3C)no1)C2"
-0.887

Look up and report measured z-score for this entry: "CO[C@H]1COC(=O)CC=C[C@H](C)[C@@H](NS(=O)(=O)c2ccc(C)cc2)COC(=O)CC=C[C@@H]1C"
-0.277

Look up and report measured z-score for this entry: "COc1ccc(-c2nc3c(c4c2C[C@H](C)OC4)CN(CCC(C)C)CC3)cc1"
-0.793
